Measured values drawn from patent US20210355194A1 for this set.

Molecular target: T1, Acro SARS-CoV-2 (COVID-19) S1 protein (SARS-CoV-2, UniProt P0DTC2 16-685)
T1 construct: also called SARS-CoV-2 S1
Test: SPR
Please go through the items and note down their pKd.
Numbers only, as −log10 of the molar value.

variant 6-16 (Fc fusion) VHH: EVQLVESGGGLVQPGGSLRLSCAASGFTFDDAAMGWFRQAPGKEREFVAHISWSGGSTYYADSVKGRFTISADNSKNTAYLQMNSLKPEDTAVYYCATFGATVTATNDAFDIWGQGTLVTVSS :: 7.28
variant 6-49 (Fc fusion) VHH: EVQLVESGGGLVQPGGSLRLSCAASGSTVLINAMGWFRQAPGKEREFVAAISWSPGRTDYADSVKGRFTISADNSKNTAYLQMNSLKPEDTAVYYCARDCSGGSCYSGDYWGQGTLVTVSS :: 7.24
variant 6-28 (Fc fusion) VHH: EVQLVESGGGLVQPGGSLRLSCAASGDTYGSYWMGWFRQAPGKEREFVATITSDDRTNYADSVKGRFTISADNSKNTAYLQMNSLKPEDTAVYYCARVTSSLSGMDVWGQGTLVTVSS :: 7.27

Consider the additional binder presented here.
In: Identify pKd associated with the binder variant 6-74 (Fc fusion) VHH: EVQLVESGGGLVQPGGSLRLSCAASGFAFGDSWMGWFRQAPGKERELVAAITSGGSTDYADSVKGRFTISADNSKNTAYLQMNSLKPEDTAVYYCARGLLWFGELFGYWGQGTLVTVSS
Out: 7.13
